Ref: patent US10034886B2

Target: GLP-1R (Homo sapiens)
Construct: host or cells: GLP-1R CRE-bla CHO-K1 cells
Test: EC20 GLP-1(9-36) PAM cAMP assay: dose response of compound in the presence of fixed concentration of GLP-1(9-36)
Type: cell-based
Settings: dose response of compound in presence of fixed concentration of GLP-1(9-36), GLP-1R CRE-bla CHO-K1 cells, read-out: EC20 GLP-1(9-36) PAM EC50
endpointLabel: EC50

compound	testedSystem	endpointLabel	observedResult
CCCCCCCOc1ccc(-c2cnc(-c3ccc(C[C@H](NC(=O)c4ccc(CC)cc4)C(=O)N4CC(C(=O)O)C4)cc3)nc2)cc1 [Compound 1108]	GLP-1R (Homo sapiens)	EC50	< 0.8 µM
CCCCCCCOc1ccc(-c2cnc(-c3ccc(C[C@H](NC(=O)c4ccc(C(C)(C)C)cc4)C(=O)NC(CCCC(=O)O)C(=O)O)cc3)nc2)cc1 (stereo partly drawn) [Compound 573]	GLP-1R (Homo sapiens)	EC50	0.8 to 2.5 µM
CCCCCOc1ccc(-c2cnc(-c3ccc(C[C@H](NC(=O)c4ccc(C(C)(C)C)cc4)C(=O)NCCC(=O)O)cc3)nc2)cc1 [Compound 710]	GLP-1R (Homo sapiens)	EC50	5 to 10 µM
CCCCCCCOc1ccc(-c2cnc(-c3ccc(C[C@H](NC(=O)c4ccc(C(C)(C)C)s4)C(=O)N4CC(C)(C(=O)O)C4)cc3)nc2)cc1 [Compound 874]	GLP-1R (Homo sapiens)	EC50	0.8 to 2.5 µM
CCCCCCCOc1ccc(-c2cnc(-c3ccc(C[C@H](NC(=O)/C=C/c4ccc(OC)cc4)C(=O)N4CC(C(=O)O)C4)cc3)nc2)cc1 [Compound 1103]	GLP-1R (Homo sapiens)	EC50	0.8 to 2.5 µM
C[C@@H](NC(=O)[C@H](Cc1ccc(-c2ncc(-c3ccc4c(ccn4S(=O)(=O)c4ccccc4)c3)cn2)cc1)NC(=O)c1ccc(C(C)(C)C)s1)C(=O)O [Compound 1010]	GLP-1R (Homo sapiens)	EC50	2.5 to 5 µM

---

Target: GLP-1R (Homo sapiens)
Construct: host or cells: GLP-1R CRE-bla CHO-K1 cells
Assay: EC20 GLP-1(9-36) PAM cAMP assay: dose response of compound in the presence of fixed concentration of GLP-1(9-36)
Type: cell-based
Settings: dose response of compound in presence of fixed concentration of GLP-1(9-36), GLP-1R CRE-bla CHO-K1 cells, read-out: EC20 GLP-1(9-36) PAM EC50
From the text: EC20 GLP-1(9-36) PAM cAMP Assay: Dose Response of Compound in the Presence of Fixed Concentration of GLP-1 (9-36). […]

compound	EC50
CC(C)(C)c1ccc(C(=O)N[C@@H](Cc2ccc(-c3ncc(-c4ccc(OCCC5CCCCC5)cc4)cn3)cc2)C(=O)N2CC(C(=O)O)C2)s1 [Compound 945]	< 0.8 µM
CCCCCCCOc1ccc(-c2cnc(-c3ccc(C[C@H](NC(=O)c4ccc(C(C)(C)C)s4)C(=O)N[C@@H](CCC)C(=O)O)cc3)nc2)cc1 [Compound 403]	0.8 to 2.5 µM
CC(C)(C)c1ccc(C(=O)N[C@@H](Cc2ccc(-c3ncc(-c4ccc(C5CCC6(CC5)OCCO6)cc4)cn3)cc2)C(=O)N2CC(C(=O)O)C2)s1 [Compound 1186]	< 0.8 µM
CCCCCCCOc1ccc(-c2cnc(-c3ccc(C[C@H](NC(=O)c4ccc(OCCC)cc4)C(=O)N4CC[C@H](C(=O)O)C4)cc3)nc2)cc1 [Compound 1097]	0.8 to 2.5 µM
CCCCCCCOc1ccc(-c2cnc(-c3ccc(C[C@H](NC(=O)c4ccc(C(C)(C)C)s4)C(=O)N[C@@H](CC(=O)O)C(=O)N4CCCCC4)cc3)nc2)cc1 [Compound 529]	< 0.8 µM
CCCCCCCOc1ccc(-c2cnc(-c3ccc(C[C@H](NC(=O)c4ccc(C(C)(C)C)cc4C)C(=O)N[C@H](C)C(=O)O)cc3)nc2)cc1 [Compound 843]	0.8 to 2.5 µM
CCCCCCCOc1ccc(-c2cnc(-c3ccc(C[C@H](NC(=O)c4ccc(C(F)(F)F)cc4)C(=O)N[C@H](C)C(=O)O)cc3)nc2)cc1 [Compound 822]	2.5 to 5 µM
CCCCCCCOc1ccc(-c2cnc(-c3ccc(C[C@H](NC(=O)c4ccc(C(C)(C)C)s4)C(=O)N[C@@H](CC(=O)N(C)CCN(C)C)C(=O)O)cc3)nc2)cc1 [Compound 520]	0.8 to 2.5 µM
CCCCCCCOc1ccc(-c2cnc(-c3ccc(C[C@H](NC(=O)c4ccc(C(C)(C)CC)cc4)C(=O)N4CCC[C@H]4C(=O)O)cc3)nc2)cc1 [Compound 1082]	0.8 to 2.5 µM
CC(C)(C)c1ccc(-c2cnc(-c3ccc(C[C@H](NC(=O)c4ccc(C(C)(C)C)s4)C(=O)N[C@H]4CCC[C@H]4C(=O)O)cc3)nc2)cc1 [Compound 382]	0.8 to 2.5 µM
CCCCCCCOc1ccc(-c2cnc(-c3ccc(C[C@H](NC(=O)c4ccc(CC)cn4)C(=O)N4CC[C@H](C(=O)O)C4)cc3)nc2)cc1 [Compound 1098]	2.5 to 5 µM

---

Biological target: GLP-1R (Homo sapiens, UniProt P43220)
Construct: host or cells: GLP-1R CRE-bla CHO-K1 cells
Sequence (P43220 24-463): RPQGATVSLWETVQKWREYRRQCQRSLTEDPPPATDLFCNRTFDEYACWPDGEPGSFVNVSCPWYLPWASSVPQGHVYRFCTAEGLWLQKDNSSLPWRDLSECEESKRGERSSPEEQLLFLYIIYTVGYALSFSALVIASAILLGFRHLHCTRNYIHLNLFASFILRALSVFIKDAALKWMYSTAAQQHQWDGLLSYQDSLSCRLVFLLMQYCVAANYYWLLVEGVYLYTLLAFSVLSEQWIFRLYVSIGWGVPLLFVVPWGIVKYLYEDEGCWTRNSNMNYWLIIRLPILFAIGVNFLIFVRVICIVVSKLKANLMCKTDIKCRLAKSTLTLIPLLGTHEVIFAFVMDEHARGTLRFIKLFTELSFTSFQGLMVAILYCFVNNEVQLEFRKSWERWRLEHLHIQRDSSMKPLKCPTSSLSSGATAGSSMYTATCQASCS
Sequence (P01275 100-127 partner limits assumed): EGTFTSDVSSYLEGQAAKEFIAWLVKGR
Test: EC20 GLP-1(9-36) PAM cAMP assay: dose response of compound in the presence of fixed concentration of GLP-1(9-36)
Assay type: cell-based
Conditions: GLP-1R CRE-bla CHO-K1 cells, compound dose response with fixed concentration of GLP-1(9-36), read-out: EC20 GLP-1(9-36) PAM EC50
pEC50: −log10 of the molar value.
Here the recorded pEC50 is given for each entry.
endpointLabel: pEC50

compound	endpointLabel	observedResult
CCC[C@H]1CC[C@H](C2CCN(c3cnc(-c4ccc(C[C@H](NC(=O)c5ccc(C(C)(C)C)s5)C(=O)N[C@H](C)CC(=O)O)cc4)nc3)CC2)CC1	pEC50	> 6.10
C[C@@H](NC(=O)[C@H](Cc1ccc(-c2ncc(-c3ccc(-c4cccc(C(F)(F)F)c4)cc3)cn2)cc1)NC(=O)c1ccc(C(C)(C)C)s1)C(=O)O	pEC50	5.00 to 5.30
CCC[C@H]1CC[C@H](C2CCN(c3cnc(-c4ccc(C[C@H](NC(=O)c5cnc(C(C)(C)C)s5)C(=O)N5CC(C(=O)O)C5)cc4)nc3)CC2)CC1	pEC50	> 6.10
CCCCc1ccc(CC2CN(c3cnc(-c4ccc(CC(NC(=O)c5ccc(C(C)(C)C)s5)C(=O)N5CC(C(=O)O)C5)cc4)nc3)C2)cc1 (stereo not drawn)	pEC50	5.30 to 5.60
CC(C)(C)c1ccc(C(=O)N[C@@H](Cc2ccc(-c3ncc(N4CCC(c5ccc(Cl)cc5)CC4)cn3)cc2)C(=O)N2CC(C(=O)O)C2)s1	pEC50	5.60 to 6.10
Cc1ccc(C2CCN(c3cnc(-c4ccc(C[C@H](NC(=O)c5ccc(C(C)(C)C)s5)C(=O)N5CC(C(=O)O)C5)cc4)nc3)CC2)cc1	pEC50	> 6.10

---

Molecular target: GLP-1R (Homo sapiens, UniProt P43220)
Construct: host or cells: GLP-1R CRE-bla CHO-K1 cells
Experiment: EC20 GLP-1(9-36) PAM cAMP assay: dose response of compound in the presence of fixed concentration of GLP-1(9-36)
Type: cell-based
Conditions: GLP-1R CRE-bla CHO-K1 cells, compound dose response with fixed concentration of GLP-1(9-36), read-out: EC20 GLP-1(9-36) PAM EC50
pEC50: −log10 of the molar value.
endpointLabel: pEC50

compound	observedResult
CC[C@H]1CC[C@H](c2ccc(-c3cnc(-c4ccc(C[C@H](NC(=O)Cc5ccc(C(C)(C)C)s5)C(=O)N5CC(C(=O)O)C5)cc4)nc3)cc2)CC1	5.30 to 5.60
C[C@@H](NC(=O)[C@H](Cc1ccc(-c2ncc(-c3ccc(-c4ccc(Br)cc4)cc3)cn2)cc1)NC(=O)c1ccc(C(C)(C)C)s1)C(=O)O	> 6.10
CC(C)(C)c1ccc(C(=O)N[C@@H](Cc2ccc(-c3ncc(-c4ccc(-c5ccc(C6CC6)cc5)cc4F)cn3)cc2)C(=O)N2CC(C(=O)O)C2)s1	> 6.10
CC[C@H]1CC[C@H](c2ccc(-c3cnc(-c4ccc(C[C@H](NC(=O)c5ccc(C(C)(C)C)s5)C(=O)NCC(=O)O)cc4)nc3)cc2)CC1	> 6.10
Cc1cccc(-c2ccc(-c3cnc(-c4ccc(C[C@H](NC(=O)c5ccc(C(C)(C)C)s5)C(=O)N[C@H](C)C(=O)O)cc4)nc3)cc2)c1	> 6.10
CCC[C@H]1CC[C@H](C2CCN(c3cnc(-c4ccc(C[C@H](NC(=O)c5ccc(C(C)(C)C)s5)C(=O)NC5(C(=O)O)CC5)cc4)nc3)CC2)CC1	> 6.10
CCCc1ccc(C(=O)N[C@@H](Cc2ccc(-c3ncc(-c4ccc([C@H]5CC[C@H](CC)CC5)cc4)cn3)cc2)C(=O)O)cc1	5.60 to 6.10
C[C@@H](NC(=O)[C@H](Cc1ccc(-c2ncc(/C=C/c3cccc(C(F)(F)F)c3)cn2)cc1)NC(=O)c1ccc(C(C)(C)C)s1)C(=O)O	5.00 to 5.30
C[C@@H](NC(=O)[C@H](Cc1ccc(-c2ncc(-c3cccc(N4CCCCC4)c3)cn2)cc1)NC(=O)c1ccc(C(C)(C)C)s1)C(=O)O	5.60 to 6.10
CC(C)(C)c1ccc(C(=O)N[C@@H](Cc2ccc(-c3ccc(-n4c5ccccc5c5ccccc54)cc3)cc2)C(=O)O)s1	5.00 to 5.30
CCCOc1ccc(C2CCN(c3cnc(-c4ccc(C[C@H](NC(=O)c5ccc(C(C)(C)C)s5)C(=O)N5CC(C(=O)O)C5)cc4)nc3)CC2)cc1	5.60 to 6.10
C[C@@H](NC(=O)[C@H](Cc1ccc(-c2ncc(C#Cc3ccc(F)cc3)cn2)cc1)NC(=O)c1ccc(C(C)(C)C)s1)C(=O)O	5.60 to 6.10
CC[C@H]1CC[C@H](c2ccc(-c3cnc(-c4ccc(C[C@H](NC(=O)c5ccc(C(C)(C)C)s5)C(=O)N[C@@H](CC(N)=O)C(=O)O)cc4)nc3)cc2)CC1	> 6.10
C[C@@H](NC(=O)[C@H](Cc1ccc(-c2ncc(OCc3ccc(C(F)(F)F)cc3)cn2)cc1)NC(=O)c1ccc(C(C)(C)C)s1)C(=O)O	5.00 to 5.30
CC(C)(C)c1ccc(C(=O)N[C@@H](Cc2ccc(-c3ncc(-c4ccc(-c5ccc(C(F)(F)F)cc5)cc4)cn3)cc2)C(=O)O)s1	> 6.10
CC(C)(C)c1ccc(C(=O)N[C@@H](Cc2ccc(-c3ncc(-c4ccc(OCCN5CCCCC5)cc4)cn3)cc2)C(=O)O)s1	5.00 to 5.30
Cc1cc(-c2ccc(-c3cnc(-c4ccc(C[C@H](NC(=O)c5ccc(C(C)(C)C)s5)C(=O)N5CC(C(=O)O)C5)cc4)nc3)c(F)c2)ccc1C(F)(F)F	> 6.10
Cc1cc(-c2ccc(-c3cnc(-c4ccc(C[C@H](NC(=O)c5ccc(C(C)(C)C)s5)C(=O)N5CC(C(=O)O)C5)cc4)nc3)c(F)c2)ccc1OC(F)(F)F	> 6.10
CCCc1ccc(-c2ccc(-c3cnc(-c4ccc(C[C@H](NC(=O)c5ccc(C(C)(C)C)s5)C(=O)O)cc4)nc3)cc2)cc1	5.60 to 6.10
CC[C@H]1CC[C@H](c2ccc(-c3ccc(-c4ccc(C[C@H](NC(=O)c5ccc(C(C)(C)C)s5)C(=O)O)cc4)cn3)cc2)CC1	5.30 to 5.60
C[C@@H](NC(=O)[C@H](Cc1ccc(-c2ncc(-c3ccc4c(c3)C(=O)c3ccccc3-4)cn2)cc1)NC(=O)c1ccc(C(C)(C)C)s1)C(=O)O	5.30 to 5.60
CC(C)CCCOc1ccc(-c2cnc(-c3ccc(C[C@H](NC(=O)Cc4csc(C(C)(C)C)n4)C(=O)N4CC(C(=O)O)C4)cc3)nc2)cc1	5.30 to 5.60
CCCC1CCC(C2CCN(c3cnc(-c4ccc(C[C@H](NC(=O)c5ccc(C(C)(C)C)s5)C(=O)N5CC(C(=O)O)C5)cc4)nc3)C(=O)C2)CC1 (some centres unmarked)	5.60 to 6.10
